# TEST SYSTEM: Human M3 receptor (Homo sapiens (Human))
# Sequence (P20309 whole entry): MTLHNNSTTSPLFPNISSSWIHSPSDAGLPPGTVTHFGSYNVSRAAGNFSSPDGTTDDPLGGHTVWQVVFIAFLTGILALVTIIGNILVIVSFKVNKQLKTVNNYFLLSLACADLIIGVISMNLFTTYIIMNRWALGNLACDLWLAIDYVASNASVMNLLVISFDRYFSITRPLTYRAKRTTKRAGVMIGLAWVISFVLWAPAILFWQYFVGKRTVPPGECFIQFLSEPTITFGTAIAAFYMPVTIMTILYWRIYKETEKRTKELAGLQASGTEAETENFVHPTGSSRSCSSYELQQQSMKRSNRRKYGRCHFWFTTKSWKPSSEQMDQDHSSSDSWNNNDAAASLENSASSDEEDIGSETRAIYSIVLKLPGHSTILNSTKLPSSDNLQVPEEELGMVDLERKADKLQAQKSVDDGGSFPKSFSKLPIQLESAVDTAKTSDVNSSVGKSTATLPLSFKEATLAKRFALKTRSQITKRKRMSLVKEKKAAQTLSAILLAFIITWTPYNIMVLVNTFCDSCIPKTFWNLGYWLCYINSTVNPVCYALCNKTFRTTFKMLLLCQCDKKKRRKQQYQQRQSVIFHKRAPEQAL
# ASSAY NOTES: M3 receptor radioligand binding assay
# APPLIED CONDITIONS: M3 Receptor radioligand binding assay; read-out: M3 IC50 Activity
pIC50: −log10 of the molar value.
READOUT LABEL: pIC50

Worked cases, answers included:
COc1ccc([C@H](Cc2c(Cl)c[n+]([O-])cc2Cl)OC(=O)c2ccc(CNCC(C(=O)OCCN(C)C)c3ccccc3)s2)cc1OC (some centres unmarked) [Example 22] | 8.00 to 9.00
COc1ccc([C@H](Cc2c(Cl)c[n+]([O-])cc2Cl)OC(=O)c2ccc(CNCC(C(=O)OC3CCN(C)CC3)c3ccccc3)s2)cc1OC (some centres unmarked) [Example 5] | 8.00 to 9.00
COc1ccc([C@H](Cc2c(Cl)c[n+]([O-])cc2Cl)OC(=O)c2ccc(CNC3CC(C(=O)OC4CCN(C)CC4)(c4ccccc4)C3)s2)cc1OC (single isomer, unassigned) [Example 34] | 7.00 to 8.00
COc1ccc([C@H](Cc2c(Cl)c[n+]([O-])cc2Cl)OC(=O)c2ccc(CNCC(C)(C(=O)OC3CCN(C)CC3)c3ccccc3)s2)cc1OC (some centres unmarked) [Example 8] | 7.00 to 8.00

Next compound, please.
Input COc1ccc([C@H](Cc2c(Cl)c[n+]([O-])cc2Cl)OC(=O)c2ccc(CNCC(C)(C(=O)OCCN(C)C)c3ccccc3)s2)cc1OC (single isomer, unassigned) [Example 28] . Output pIC50: 7.00 to 8.00
